# Test Method Notes: Relative cell viability of transfected NSC-34 cells
# Assay type: cell-based, mouse
# Condition Details: mouse, NSC-34 cells expressing EGFP-WT-SOD1, WT; 20 uM, 48 h; replicates
Quantity Kind: viability at 48 h, 20 µM (%)

- [O-][S+]1CCCCS1 (stereo not shown) [S-XL6, 1,2-dithiane-1-oxide]: 109

###

# Test Method Notes: MTT cell viability/cytotoxicity assay
# Type: cell-based
# Condition Details: human, Hep G2 cells, 250 µM, read-out: viable cells compared to vehicle control (MTT)
# Experimental: The Hep G2 human hepatocarcinoma cell line (American Type Culture Collection, ATCC, Manassas, Virginia, USA) was cultured using EMEM (Eagle’s minimal essential medium, ATCC) supplemented with 10% FBS (fetal bovine serum, ATCC) and 1% penicillin streptomycin as previously described (10,000 units/mL penicillin and 10,000 μg/mL streptomycin, Fisher scientific, Hampton, New Hampshire, USA). The cells were grown and subcultured around 72 h at 37°C, 5% CO2 under controlled humidity. […]
Quantity Kind: viability at 24 h, 250 µM (%)

* [O-][S+]1CCCCS1 (stereo not shown) [S-XL6, 1,2-dithiane-1-oxide] | 79
